pIC50 values, listed per item
Tested on: PMA-differentiated THP-1 cells
assay details: IL-1β production in PMA-differentiated THP-1 cells stimulated with gramicidin (hTHP-1 assay containing 2% fetal bovine serum; Procedures 1 and 2)
Format: cell-based, human
applied conditions: Homo sapiens, THP-1, Table B1; 2% fetal bovine serum; numeric bounds; read-out: Average IC50 of compounds in hTHP-1 assay: hTHP-1 IC50
pIC50: −log10 of the molar value.

>  <molecule>
CC(C)c1ncc(F)c(C(C)C)c1NC(=O)N=S(N)(=O)c1ccc(CN(C)C)cc1 (stereo not drawn) [Compound 132]

>  <pIC50>
< 4.57

$$$$
>  <molecule>
CN(C)Cc1ccc(S(N)(=O)=NC(=O)Nc2c3c(nc4c2CCC4(C)C)CCC3)cc1 (single isomer, unassigned) [Compound 125a]

>  <pIC50>
< 4.52

$$$$
>  <molecule>
NS(=O)(=NC(=O)Nc1c2c(nc3c1CCC31CC1)CCC2)c1ccn(C(F)F)n1 (single isomer, unassigned) [Compound 180b]

>  <pIC50>
< 4.52

$$$$
>  <molecule>
Cn1nc(S(N)(=O)=NC(=O)Nc2c3c(nc4c2CCC4)CCC3)cc1C(C)(C)O (single isomer, unassigned) [Compound 158b]

>  <pIC50>
< 4.52

$$$$
>  <molecule>
CC(C)c1csc(S(N)(=O)=NC(=O)Nc2c3c(nc4c2CCC4)CCC3)c1 (single isomer, unassigned) [Compound 173b]

>  <pIC50>
< 4.70

$$$$
>  <molecule>
CC(C)(O)c1ncc(S(N)(=O)=NC(=O)Nc2nc3ccccc3c3c2CCC3)s1 (stereo not drawn) [Compound 111]

>  <pIC50>
< 4.52

$$$$
>  <molecule>
CC1(C)Cc2nc3c(c(NC(=O)N=S(N)(=O)c4cnc(C(C)(C)O)s4)c2C1)CCC3 (single isomer, unassigned) [Compound 147a]

>  <pIC50>
< 4.52

$$$$
>  <molecule>
CC1CCc2c1nc1c(c2NC(=O)N=S(N)(=O)c2sc(C(C)(C)O)nc2CO)CCC1 (single isomer, unassigned) [Compound 168ab]

>  <pIC50>
< 4.52

$$$$
>  <molecule>
CC(C)(O)c1ncc(S(N)(=O)=NC(=O)Nc2cc(-c3ccccc3)nc3c2CCC3)s1 (stereo not drawn) [Compound 142]

>  <pIC50>
< 4.52

$$$$
>  <molecule>
CC(C)(O)c1nc(CCO)c(S(N)(=O)=NC(=O)Nc2c3c(nc4c2CCC4)CCC3)s1 (single isomer, unassigned) [Compound 118b]

>  <pIC50>
< 4.62

$$$$
>  <molecule>
Cc1cc(C2CC2)nc(NC(=O)N=S(N)(=O)c2ncc(C(C)(C)O)s2)n1 (single isomer, unassigned) [Compound 185b]

>  <pIC50>
< 4.52

$$$$
>  <molecule>
Cc1nc2c(c(NC(=O)N=S(N)(=O)c3cnc(C(C)(C)O)s3)c1C(C)C)CCC2 (single isomer, unassigned) [Compound 116a]

>  <pIC50>
< 4.52

$$$$
>  <molecule>
CC(C)(O)c1ccc(S(N)(=O)=NC(=O)Nc2c3c(nc4c2CCC4)CCC3)cn1 (single isomer, unassigned) [Compound 156a]

>  <pIC50>
< 4.52

$$$$
>  <molecule>
CC(C)c1cc(NC(=O)N=S(N)(=O)c2cc(C(C)(C)O)cs2)c2c(n1)CCC2 (stereo not drawn) [Compound 182]

>  <pIC50>
< 4.85

$$$$
>  <molecule>
Cc1cc(C2CC2)nc(NC(=O)N=S(N)(=O)c2ncc(C(C)(C)O)s2)n1 (stereo not drawn) [Compound 185]

>  <pIC50>
< 4.52

$$$$
